- TARGET_ENTITY: human PDE10A2 (Homo sapiens (Human), UniProt Q9Y233)
- Sequence (Q9Y233 267-1055): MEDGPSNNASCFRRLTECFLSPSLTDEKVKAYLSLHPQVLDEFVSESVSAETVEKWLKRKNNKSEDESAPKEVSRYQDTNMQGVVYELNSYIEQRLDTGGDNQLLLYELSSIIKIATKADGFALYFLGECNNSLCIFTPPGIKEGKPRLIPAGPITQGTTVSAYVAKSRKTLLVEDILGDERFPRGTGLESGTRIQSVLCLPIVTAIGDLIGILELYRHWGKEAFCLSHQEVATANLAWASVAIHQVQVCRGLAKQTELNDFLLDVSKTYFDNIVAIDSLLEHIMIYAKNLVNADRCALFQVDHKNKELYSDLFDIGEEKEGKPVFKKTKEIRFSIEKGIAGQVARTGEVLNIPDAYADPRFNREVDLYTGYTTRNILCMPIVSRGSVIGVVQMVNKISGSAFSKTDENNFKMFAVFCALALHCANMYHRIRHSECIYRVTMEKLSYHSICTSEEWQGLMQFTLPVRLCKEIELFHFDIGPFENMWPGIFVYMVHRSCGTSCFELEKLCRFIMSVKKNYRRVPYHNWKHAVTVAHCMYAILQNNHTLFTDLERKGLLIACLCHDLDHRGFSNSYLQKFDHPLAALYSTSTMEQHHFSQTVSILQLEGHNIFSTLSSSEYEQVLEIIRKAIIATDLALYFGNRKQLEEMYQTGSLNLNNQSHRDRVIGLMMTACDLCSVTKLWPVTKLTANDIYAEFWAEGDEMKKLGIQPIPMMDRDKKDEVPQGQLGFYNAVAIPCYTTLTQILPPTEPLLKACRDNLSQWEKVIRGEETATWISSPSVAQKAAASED
OBSERVABLE: Ki (nM)
Field: numeric (nM). Do not append units.

Recorded Ki, per entry:
{"COMPOUND": "COc1ccc([C@H]2C[C@@H]2COc2nc(C)ncc2-c2ccn(C)c(=O)c2SC)nc1 [Example 115]", "Ki, nM": 18}
{"COMPOUND": "COc1ccc([C@H]2C[C@@H]2COc2nc(C)ncc2-c2ccc(=O)n(CC(F)(F)F)c2)nc1 [Example 52]", "Ki, nM": 3.11}
{"COMPOUND": "COc1ccc([C@H]2C[C@@H]2COc2nc(C)ncc2-c2cc(=O)n(C)cc2C)nc1 [Example 82]", "Ki, nM": 0.496}
{"COMPOUND": "Cc1ccc([C@H]2C[C@@H]2COc2nc(C)ncc2-c2ccn(CCC#N)c(=O)c2)nc1 [Example 119]", "Ki, nM": 1.58}
{"COMPOUND": "COc1ccc([C@H]2C[C@@H]2COc2nc(C)ncc2-c2cnn(C)c(=O)c2)nc1 [Example 136]", "Ki, nM": 5.74}
{"COMPOUND": "COc1ccc([C@H]2C[C@@H]2COc2nc(C)ncc2-c2cc(=O)n(C)cc2S(C)(=O)=O)nc1 [Example 98]", "Ki, nM": 67.5}

For the compound COc1ccc([C@H]2C[C@@H]2COc2nc(C)ncc2-c2cnn(C)c(=O)c2Cl)nc1 [Example 137] , the measured Ki on human PDE10A2 (Homo sapiens (Human), UniProt Q9Y233) was 0.728

Form field Ki for item Cc1ncc(-c2ccc(=O)n(C)c2)c(OC[C@H]2C[C@@H]2c2ccc3c(n2)CCC3)n1 [Example 42] on human PDE10A2 (Homo sapiens (Human), UniProt Q9Y233): 0.531
